# TEST_SYSTEM: T1, Activin B (UniProt P09529 293-407)
# T1 sequence (looked up): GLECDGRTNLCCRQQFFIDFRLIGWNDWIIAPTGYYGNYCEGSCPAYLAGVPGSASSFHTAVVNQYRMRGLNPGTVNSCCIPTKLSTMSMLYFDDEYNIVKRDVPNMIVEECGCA
# EXPERIMENTAL_PROTOCOL: SPR (Biacore 3000), receptor captured on chip, ligand in solution
REPORTED_PROPERTY: Kd (nM)

BINDER	OBSERVED_MEASUREMENT
ActRIIa/bmax2 variant (SEQ ID NO: 71) (receptor, not shown: Carrier and linker) GAILGRSETQECLFYNANWELERTNQTGVERCEGEKDKRLHCYATWRNISGSIEIVKKGCWLDDFNCYDRTDCVETEENPQVYFCCCEGNMCNEKFSYFPEMEVTQPTSNP	0.039
ActRIIa/bΔ9m4 variant (SEQ ID NO: 44) (receptor, Engineered extracellular ActRIIa variant; not shown: Carrier and linker) GAILGRSETQECLFYNANWELDRTNQTGVEPCEGEKDKRLHCYATWRNISGSIEIVKKGCWLDDFNCYDRTDCVETKENPQVYFCCCEGNMCNEKFSYFPEMEVTQPTS	0.254
ActRIIa/bΔ9m2 variant (SEQ ID NO: 38) (receptor, Engineered extracellular ActRIIa variant; not shown: Fusion partner and its linker) GAILGRSETQECLFYNANWELDRTNQTGVERCEGEKDKRLHCYATWRNISGSIEIVKKGCWLDDINCYDRTDCVETKENPQVYFCCCEGNMCNEKFSYFPEMEVTQPTS	0.104
ActRIIb (SEQ ID NO: 74) (receptor, also called Human ActRIIb, extracellular portion; not shown: Carrier and linker) GRGEAETRECIYYNANWELERTNQSGLERCEGEQDKRLHCYASWRNSSGTIELVKKGCWLDDFNCYDRQECVATEENPQVYFCCCEGNFCNERFTHLPEAGGPEVTYEPPPTAPT	0.023
ActRIIa/bΔ9m3 variant (SEQ ID NO: 41) (receptor, Engineered extracellular ActRIIa variant; not shown: Fusion partner and its linker) GAILGRSETQECLFYNANWELDRTNQTGVERCEGEKDKRLHCFATWRNISGSIEIVKKGCWLDDFNCYDRTDCVETKENPQVYFCCCEGNMCNEKFSYFPEMEVTQPTS	0.0725
ActRIIa/b variant (SEQ ID NO: 69) (receptor, Engineered extracellular ActRIIa variant; not shown: Carrier and linker) GAILGRSETQECLFYNANWELERTNQTGVERCEGEKDKRLHCYATWRNISGSIEIVKKGCWLDDFNCYDRTDCVETEENPQVYFCCCEGNMCNEKFSYFPEMEVTQPTS	0.103
ActRIIa/b+ variant (SEQ ID NO: 150) (receptor, not shown: Fusion partner and its linker) GAILGRSETQECLFYNANWELERTNQTGVERCEGEKDKRLHCYATWRNISGSIEIVAKGCWLDDFNCYDRTDCVETEENPQVYFCCCEGNMCNEKFSYFPEMEVTQPTS	0.282
ActRIIa/bmax1 variant (SEQ ID NO: 70) (receptor, Engineered extracellular ActRIIa variant; not shown: Carrier and linker) GAILGRSETQECLYYNANWELERTNQTGVERCEGEQDKRLHCYATWRNISGSIEIVKKGCWLDDFNCYDRTDCVETEENPQVYFCCCEGNMCNEKFSYFPEMEVTQPTS	0.097
